// provenance: PubChem BioAssay

- ASSAY_EXPLANATION: drug combination growth inhibition, ovarian cancer – cell-based, oncology-focused library, rucaparib conditional, profiling panel (AID 1508598)
- TEST_PARAMETERS: patient-derived ovarian cancer cells, CellTiter-Glo viability, 144 h; at 0.00122 µM; OCI-C5x cells; without rucaparib
Activity calls are given as the source filed them.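 The calls were made as follows: active = normalized viability below 100% at a tested concentration; inactive = the rest.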
Classes used: label 1 = active, label 0 = inactive

* CC#C[C@@]1(O)CC[C@H]2[C@@H]3CCC4=CC(=O)CCC4=C3[C@H](c3ccc(N(C)C)cc3)C[C@@]21C | label 0
* CCCc1ccc(OCC(=O)N(Cc2nc(-c3cccnc3)no2)C(C)C)cc1 | label 0
* Cc1cc([N+](=O)[O-])ccc1NS(=O)(=O)c1cc(Cl)ccc1Cl | label 0
* N[C@@H]1CCCN(c2c(/C=C3\SC(=O)NC3=O)cccc2-c2ccccc2)C1 | label 0
* O=C(O)c1cc(I)ccc1NC(=O)[C@H](Cc1ccccc1)NCc1ccccc1 | label 0
* O=C1[C@H](CC[C@H](O)c2ccc(F)cc2)[C@H](c2ccc(O)cc2)N1c1ccc(F)cc1 | label 0
* Cc1cc2c(C(=O)NC[C@H](C)c3ccccc3)c(O)c(O)cc2c(O)c1-c1c(C)cc2c(C(=O)NC[C@H](C)c3ccccc3)c(O)c(O)cc2c1O | label 0
* COc1cccc(-c2cc(F)ccc2[C@H]2Cc3nc(N)nc(C)c3C(=O)N2)n1 | label 0
* CC1(C)O[C@@H]2C[C@H]3[C@@H]4CCC5=CC(=O)C=C[C@]5(C)[C@]4(F)[C@H](O)C[C@]3(C)[C@@]2(C(=O)CO)O1 | label 0
* CC(C)CC(CC(=O)NO)C(=O)N[C@@H](Cc1ccc2ccccc2c1)C(=O)N[C@@H](C)C(=O)NCCN (some centres undefined) | label 0
* OCCn1cc(-c2ccc3c(c2)CCC3=NO)c(-c2ccncc2)n1 | label 0
* O=C(/C=C/c1ccc2ccccc2n1)c1ccncc1 | label 0
* CO[C@H]1C[C@H]2CC[C@@H](C)[C@@](O)(O2)C(=O)C(=O)N2CCCC[C@H]2C(=O)O[C@H]([C@H](C)C[C@@H]2CC[C@H](OP(C)(C)=O)[C@H](OC)C2)CC(=O)[C@H](C)/C=C(\C)[C@@H](O)[C@@H](OC)C(=O)[C@H](C)C[C@H](C)/C=C/C=C/C=C/1C | label 1
* CC(=O)[C@]1(O)Cc2c(O)c3c(c(O)c2[C@H](O[C@H]2C[C@H](N)[C@H](O)[C@H](C)O2)C1)C(=O)c1ccccc1C3=O | label 0
* COc1cc(Br)c(Nc2nc(-c3c(C)nc4ncccn34)cs2)c(Br)c1 | label 0
* COc1cccc2c1C(=O)c1c(O)c3c(c(O)c1C2=O)C[C@@](O)(C(=O)CO)C[C@H]3O[C@H]1C[C@H](N)[C@@H](O)[C@H](C)O1 | label 0
* CO[C@H]1C[C@@H]2CC[C@@H](C)[C@@](O)(O2)C(=O)C(=O)N2CCCC[C@H]2C(=O)O[C@H]([C@@H](C)C[C@@H]2CC[C@@H](OCCO)[C@H](OC)C2)CC(=O)[C@H](C)/C=C(\C)[C@H](O)[C@@H](OC)C(=O)[C@H](C)C[C@H](C)/C=C/C=C/C=C/1C | label 0
* C=CS(=O)(=O)NC1CCN(C(=O)CNc2cc(I)c(Cl)cc2OC)CC1 | label 0
* Cc1cc(NC(=O)c2cccc(NC(=O)/C=C/CN(C)C)c2)ccc1Nc1nccc(-c2cccnc2)n1 | label 0
* C[C@H](O[C@H]1OCCN(Cc2n[nH]c(=O)[nH]2)[C@H]1c1ccc(F)cc1)c1cc(C(F)(F)F)cc(C(F)(F)F)c1 | label 0
* Cc1[nH]c(C=C2C(=O)Nc3ccc(S(=O)(=O)N(C)c4cccc(Cl)c4)cc32)c(C)c1C(=O)N1CCN(C)CC1 | label 0
* COc1cccc2c1C(=O)c1c(O)c3c(c(O)c1C2=O)C[C@@](O)(C(=O)CO)C[C@H]3O[C@H]1C[C@H](N)[C@H](O)[C@H](C)O1 | label 0
* COc1ccc(C2=N[C@H](c3ccc(Cl)cc3)[C@@H](c3ccc(Cl)cc3)N2C(=O)N2CCNC(=O)C2)c(OC(C)C)c1 | label 0
* C[C@]12CCC(=O)C=C1CC[C@@H]1[C@H]2[C@H](O)C[C@@]2(C)[C@H]1CC[C@@]2(O)C(=O)CO | label 0
